In plain terms, low boiling point, meaning strictly below 200 °C, gives Y, and everything else gives N.

>  <Compound>
CCCCCC(=O)OCCCC

>  <Discrete label>
N

$$$$
>  <Compound>
C=CCSCC=C

>  <Discrete label>
Y

$$$$

Find out if reported boiling point for CCC(Oc1ccccc1)C(=O)O (centres undefined) is less than 200 °C
N

Also CCCCCCCCCCCCCCC1CCCCC1 , if possible.
N

Also CC(C)=CCC/C(C)=C/CO , if possible.
N

Also CN1[C@@H]2CC[C@H]1C[C@@H](O)C2 , if possible.
N

Also FC(F)(F)C1(F)C(F)(F)C(F)(F)C(F)(F)C(F)(F)C1(F)F , if possible.
Y

Also N#Cc1cccc(C(F)(F)F)c1 , if possible.
Y

Also CCc1ccc(C)cc1 , if possible.
Y

Also Cc1cc(C(C)(C)C)ccc1O , if possible.
N

Also CCCOC , if possible.
Y

Also Cc1ccc(C(=O)c2ccccc2)c(C)c1 , if possible.
N

Also Nc1c(Cl)cc(Cl)cc1Br , if possible.
N

Also C1CCC(CCCCCC2CCCCC2)CC1 , if possible.
N
